Recorded values, source a melting point compilation (Tetko et al.; mined from patent text by program, amines drawn as free bases though some values may be those of a salt).

metric: melting point

Here's what some known entries look like.
COC(=O)c1c(C)c(OC)cc(O[Si](C)(C)C(C)(C)C)c1C=O ... 125 to 131 °C
CNc1cc(Cc2c(-c3ccc(OCCN4CCCC4)cc3)sc3cc(O)ccc23)ccc1CN1CCCC1 ... 99 to 102 °C

Ask: Tell me melting point reported for "CC(=NO)C(=O)c1ccccc1OCc1ccccc1"
Result: 78 to 80 °C

Ask: Tell me melting point reported for "N#Cc1cnn(-c2ccc(NN)nn2)c1N"
Result: 264 to 266 °C

Ask: Tell me melting point reported for CCOC(=O)C1=CC(=O)CC(c2ccc(Cl)c(OC)c2F)N1 (centres undefined)
Result: 116 to 118 °C

Ask: Tell me melting point reported for "OCCSCc1ccc(CSCCO)cc1"
Result: 90 to 92 °C

---

metric: melting point

O=C(NCC#CCN1CCN(c2ncccn2)CC1)c1nsc2ccccc12 ... 102 to 104 °C
CCOC(=O)c1c(N)nc(C)c(NC(C)=O)c1C ... 168 to 170 °C
CS(=O)(=O)OCCC(c1ccccc1)c1ccccc1 ... 83 to 85 °C
COc1c(Cl)ccc(-c2cc(N)c(Cl)c(C(=O)NOCc3ccc(F)cc3)n2)c1F ... 150 to 153 °C

Ask: Tell me melting point reported for CCCn1c(=O)c2[nH]c(C3CCC(=O)C3)nc2n(CCC)c1=O (stereo unspecified)
Result: 147 to 148 °C

Ask: Tell me melting point reported for CC(NC(=O)CSC(=O)c1ccccc1)C(=O)NCC(=O)NCC(=O)O (stereo unspecified)
Result: 167 to 170 °C

---

metric: melting point

CCCCCCN(CCCCCC)C(Nc1ccc(-c2ccccc2)cc1)=C1C(=O)COC1=O ... 138 to 140 °C
Clc1ccc(CNc2cc(Cl)nc(Cl)n2)cc1 ... 120 to 122 °C
Cc1nc(CC2(C)CCN(c3ccc(F)cc3)CC2)nc(C(=O)NCC(=O)O)c1O ... 140 to 141 °C

Consider the additional compound presented here.
Ask: Tell me melting point reported for CCCCCC(CNC(=O)Nc1c(C(C)C)cccc1C(C)C)c1cccc2c1OCO2 (centres undefined)
Result: 161 to 163 °C

---

melting point by entry:

O=C(O)CCNC(=O)NCC(CS)c1ccccc1 (stereo unspecified) ... 88 to 90 °C
CCCCCCn1ccc(N)nc1=O ... 216 to 217 °C

Ask: Tell me melting point reported for CS(=O)(=O)OC1CCc2c(sc(N)c2C(=O)c2ccc(Cl)cc2)C1 (stereo unspecified)
Result: 73 to 75 °C

Ask: Tell me melting point reported for O=c1cc(O)nc2cc(C(c3c(F)ccc(F)c3F)S(=O)(=O)CCC(F)(F)F)c(Cl)cn12 (stereo unspecified)
Result: 264 °C

---

melting point by entry:

O=S1(=O)c2cccc3cccc(c23)N1CCCN1CCN(c2ccc(Br)cc2)CC1 ... 149 °C
C#CCN(c1ccc(C(=O)OC(C)(C)C)c(F)c1)C1CCc2cc3nc(C)[nH]c(=O)c3cc21 (racemic) ... 248 to 250 °C
CCc1ccc(CCc2ccccc2NC=O)nc1 ... 62 to 63.5 °C

Ask: Tell me melting point reported for "O=C(O)c1sc2ccc(Br)cc2c1-c1ccccc1"
Result: 265 to 266 °C

Ask: Tell me melting point reported for O=C1C=C(O[C@@H]2c3cc([N+](=O)[O-])ccc3OC(CF)(CF)[C@H]2O)CC1 (relative stereo)
Result: 206 to 208 °C

Ask: Tell me melting point reported for "CCOC(=O)c1sc(N)nc1-c1ccccc1Cl"
Result: 162 to 164 °C

---

melting point by entry:

CCc1ccc(O)c(C#N)c1 ... 95 to 98 °C

Ask: Tell me melting point reported for CC(OCc1cc2cc(Cl)ccc2n1S(=O)(=O)c1ccc2c(c1)OCCO2)C(=O)O (stereo not drawn)
Result: 70 °C

Ask: Tell me melting point reported for "O=C(c1cc2ccnc(Cl)c2[nH]1)N1CCOCC1"
Result: 170 to 171 °C

Ask: Tell me melting point reported for "CN(C)C=Nc1nc(=O)n(S(=O)(=O)c2ccc(Cl)cc2)cc1F"
Result: 207 to 210 °C

Ask: Tell me melting point reported for Cc1c(C)c2c(c(C3CC(=O)C=C(O)C3)c1C)OCC2 (stereo not drawn)
Result: 264 °C

Ask: Tell me melting point reported for "OCCCc1nc(COc2ccc(CCCn3ccnc3)cc2)co1"
Result: 63 to 64 °C

Ask: Tell me melting point reported for OC1CCCCC1c1ncc[nH]1 (stereo not drawn)
Result: 133 to 134 °C

Ask: Tell me melting point reported for "O=C(/C=C/c1ccccc1Cl)Nc1ccc(-n2nc(C(F)(F)F)cc2C(F)(F)F)cc1"
Result: 173 to 175 °C

Ask: Tell me melting point reported for "N#Cc1ccc(-c2ccc(C(=O)O)nc2)cc1"
Result: > 260 °C

Ask: Tell me melting point reported for "CN(NC(=O)OCc1ccccc1)C(=O)c1cc(OCc2ccccc2)c(OCc2ccccc2)c(CNC(=O)OC(C)(C)C)n1"
Result: 125 to 127 °C

Ask: Tell me melting point reported for "O=c1[nH]c(N2CCN(CCCCN3CCCCC3)CC2)cc2c(Br)cccc12"
Result: 165 to 166 °C

Ask: Tell me melting point reported for "NCCCN1c2ccccc2N=C(c2ccccc2F)c2ccccc21"
Result: 144 to 145 °C

Ask: Tell me melting point reported for "O=C(O)CCC12CC(c3ccccc31)c1ccccc12"
Result: 185 to 189 °C

Ask: Tell me melting point reported for "CCCCCCNC(=O)OCCCCCCCCCCCCNC(=O)OC1CCN(C(=O)O)CC1"
Result: 98 to 100 °C

Ask: Tell me melting point reported for "Cc1cc(OS(=O)(=O)C(F)(F)F)ccc1-c1cc(C(F)(F)F)nn1-c1ccc(S(C)(=O)=O)cc1"
Result: 175 °C

Ask: Tell me melting point reported for "C=CCOc1ccc(CC(=O)NCC(=O)N[C@@H](Cc2c[nH]cn2)C(=O)OC)cc1Cl"
Result: 147 to 150 °C

Ask: Tell me melting point reported for "O=C(O)Cc1ccc2c(c1)C(=O)c1cc(Cl)ccc1CS2"
Result: 187 to 189 °C

Ask: Tell me melting point reported for "NC(=O)c1cccc(Cn2ccc(OCc3ccc(F)cc3F)c(Cl)c2=O)c1F"
Result: 252 to 254 °C

---

melting point by entry:

Here's what some known entries look like.
CCOCCCCC(=S)c1ccc(C)cc1 ... 62 to 63.5 °C
C=Cc1ccc(-c2ccc(OC(C)CCCCCC)cc2)cc1 (stereo unspecified) ... 80.6 °C
COc1ccc(Br)c(Sc2nc3c(N)nccc3n2CCCNC(C)C)c1 ... 125 to 129 °C
CCOC(=O)c1cccc(-c2ccc3c(c2)C(=O)CCC3)c1 ... 89 to 90 °C
CS(=O)(=O)c1ccc(CN(C2CCOCC2)S(=O)(=O)c2ccc(Cl)cc2)cc1 ... 158 to 160 °C

Consider the additional molecule presented here.
Ask: Tell me melting point reported for "O=C(O)Cc1cccc2c(=O)cc(-c3ccc(F)c(F)c3)oc12"
Result: 145 to 147 °C

---

melting point by entry:

Here's what some known entries look like.
O=C(NCc1ccc(F)c(F)c1)c1cc(-n2cnn(Cc3ccc(F)cc3)c2=O)n[nH]1 ... 208 to 209 °C
N#CC(C#N)c1cccc(Br)c1 ... 97 to 99 °C
Cc1ccc2[nH]c3c(c2c1)C(C(=O)OCc1ccccc1)CCC3 (stereo unspecified) ... 115 to 117 °C
Brc1ccc2c(c1)C(c1ccccc1)OC(c1ccncc1)=N2 (stereo unspecified) ... 161 to 162 °C
O=C1c2ccccc2C(=O)N1C/C=C(\F)COc1ccc(Cl)cc1Cl ... 115 to 116 °C
COc1cc(/C=C/C=C/C(=O)NCCCC2CNCCC2c2c[nH]c3ccccc23)cc(OC)c1O (stereo unspecified) ... 176 to 179 °C
CCCCCS(=O)(=O)NC(=O)CCc1ccc(OCCOC)cc1Oc1ncc(Cl)cc1Cl ... 92.2 to 93.6 °C
Cc1cc(OCc2ccc(-c3ccccc3C(=O)O)cc2)c2ncccc2n1 ... 213 to 214 °C

Ask: Tell me melting point reported for Cc1cccc(NC(c2ccc(F)c(F)c2)c2ccc3cccnc3c2O)n1 (stereo unspecified)
Result: 162 to 165 °C

Ask: Tell me melting point reported for "O=C(c1ccc(-n2ccnc2)cc1)N1CCN(S(=O)(=O)c2cc3cc(Cl)ccc3[nH]2)CC1"
Result: 155 to 165 °C

---

melting point by entry:

Here's what some known entries look like.
C[C@@H](N1CCN(c2ccc(OCC(F)(F)F)cc2)C1=O)[C@@]1(c2ccc(F)cc2F)CO1 ... 131 to 132 °C
CCCS(=O)c1csc(C(=O)OC)c1S(N)(=O)=O (stereo not given) ... 131 to 144 °C
CCNC(=O)ON=C(C)C1=CCCN(C)C1 ... 74 to 78 °C
Cc1nnn(-c2ccc(F)cc2)c1CCl ... 70 to 71 °C
O=c1[nH]c(-c2cccc3ccccc23)nc2ccc(N3CCOCC3)cc12 ... 291 to 293 °C

Ask: Tell me melting point reported for "COc1cc(-c2nc3ccc(OCCCN(C)C)cc3n2Cc2ccccc2)cc(OC)c1OC"
Result: 112 °C

Ask: Tell me melting point reported for "CCCCNc1ccn2nccc2n1"
Result: 75 to 76 °C

Ask: Tell me melting point reported for "CCCCCc1cc(OC)c(C2=C[C@H]3CC[C@]2(C(=O)O)C3(C)C)c(OC)c1"
Result: 84 to 86 °C

Ask: Tell me melting point reported for "Cc1ccccc1C(=O)Nc1ccc(C(=O)N2Cc3ccccc3Cc3ccccc32)c(C)c1"
Result: 112 to 114 °C

Ask: Tell me melting point reported for Cc1ccc(F)c(C(C)Oc2ccc3nc(NC(=O)NCCN4CCOCC4)sc3c2)c1F (stereo not given)
Result: 92 to 95 °C
